- Organism: Rattus norvegicus
- Assay summary: In vitro inhibition of Na(+)-gradient-dependent uptake of 32 inorganic phosphate (Pi) by BBM vesicles freshly prepared from the rat renal cortex
- Format: functional
- Parameters: concentration or dose not given beside the values
Each record is given Y if its reported Inhibition is strictly below -30%. Records at or above -30% are given N.

# count of solved cases: 2
> print(dat)
                                   molecule  assigned.class
1  O=P(O)(O)C(Cl)(Br)P(=O)(O)c1ccccc1 (configuration not stated)               Y
2          O=P(O)(O)C(F)(F)P(=O)(O)c1ccccc1               Y

Is it true that Inhibition reported for O=P(O)(O)C(F)P(=O)(O)c1ccccc1 (configuration not stated) is less than -30%?
Y

Quick check: does O=C(O)P(=O)(O)O have Inhibition under -30%?
Y

Report whether reported Inhibition is lower than -30% (strictly) for O=P(O)(O)C(Br)(Br)P(=O)(O)c1ccccc1
N

For O=P(O)(O)C(Cl)(Cl)P(=O)(O)c1ccccc1 , is the recorded Inhibition below the cut-off of -30%?
Y
